Reported values of Chemotaxis IC50 (nM); 2 nM hIP-10; hCXCR3 L1.2 cells for individual entries
- Study Target: T1, recombinant human IP-10 (hIP-10) (human, UniProt P02778 22-98)
- T1 sequence (looked up): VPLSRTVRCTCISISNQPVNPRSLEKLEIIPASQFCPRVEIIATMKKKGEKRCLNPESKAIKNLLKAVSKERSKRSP
- Measurement Protocol: cell-based or functional assay
Write it as a number; the unit nM goes unstated.

Example entries begin here.
INSERT INTO assay_data (binder, reading) VALUES
  ('CC21R3P1_F1, scFv format (scFv) QVQLVESGGGVVQPGRSHTLSCAASGFAFKNSGIHWVRQAPGKGLEWVAVISYDGSNKFYADSVKGRFTISRDNSQNTVYLQMTDLRPDDTAVYYCARDGSESEYLDYWGKGTLVTVSSNFMLTQPHSVSESPGKTVTISCTGSGGSIDRNYVQWYQQRPGSAPITVIYEDNQRPSGVPDRFSGSIDSSSNSASLTISGLRTDDEADYYCQSYDSINLWVFGGGTKVTVL', 18),
  ('CB21R3P1_F1, scFv format (scFv) QVQLVESGGGVVRPGRSLRLSCAASGFTFSSYGMHWVRQAPGKGLEWVAVISYDGSIKYYADSVKGRFTISRDNSKNTLYLQMNSLRAEDTAIYYCARVMGTDPHSYYYMDVWGKGTLVTVSSSSELTQDPAVSVALGQTVRITCQGDSLRSYYASWYQRKPGQAPVLVIYGKNNRPSGIPDRFSGSSSGNTASLTITGAQAEDEADYYCNSRDSSGNHVLFGGGTKLTVL', 40),
  ('CC21R3P1_E7, scFv format (scFv) QLVESGGGVVQPGRSLRLSCAASGFTFSTYGMHWVRQAPGKGLEWVAVISYDGGTKYYADSVKGRFTISRDNSMKTLYLQMNSLRTEDTAVYYCAKDLGDLPPGLDYWGQGTMVTVSSQSVLTQPPSASGTPGQRVTISCSGSSSNIGSNTVNWYQQLPGAAPKLLIYTNNQRPSGVPDRFSGSKSGTSASLAISGLQSEDEADYYCAAWDDSLNGNVVFGGGTKVTVL', 71);

For CB21R3P3_E5, scFv format (scFv) QVQLVESGGGVVQPGRSLRLSCAASGFTFSSYGMHWVRQAPGKGLEWVAVISYDGSIKYYADSVKGRFTISRDNSKNTLYLQMNSLRAEDAAVYYCARAPDGHQLDYWGRGTLVTVSSNFMLTQPHSVSESPGKTVTISCTGSSGSIASNYVQWYQQRPGSAPTTVIYEDDQRPSDVPDRFSGSIDSSSNSASLTISGLRTEDEADYYCQSYVSSKWVFGGGTKLTVL , what is its reported Chemotaxis IC50 (nM); 2 nM hIP-10; hCXCR3 L1.2 cells?
36
